Test system: NCI-H460
Assay: Cytotoxicity assay (cell titer-glo and calcein AM), NCI-H460
Details: read-out: Cytotoxicity IC50, NCI-H460, CTG; NCI-H460; CTG (cell titer-glo) readout; % error in parentheses
value-kind: IC50

compound	recorded-value
COc1cc2c(c(OC)c1OC)-c1ccc(OC)c(=O)cc1[C@@H](NC(=O)CN(OC)[C@@H]1OC[C@@H](O)[C@H](O)[C@H]1O)CC2 [Col4, D-xyloside]	> 10 µM
COc1cc2c(c(OC)c1OC)-c1ccc(OC)c(=O)cc1[C@@H](NC(=O)CN(OC)[C@@H]1O[C@H](CO)[C@@H](O)[C@H](O)[C@H]1F)CC2 [Col34, 2-fluoro-2-deoxy-D-glucoside]	> 1 µM
COc1cc2c(c(OC)c1OC)-c1ccc(OC)c(=O)cc1[C@@H](NC(=O)CN(OC)[C@@H]1O[C@H](CO)[C@@H](N=[N+]=[N-])[C@H](O)[C@H]1O)CC2 [Col44, 4-deoxy-4-azido-D-glucoside]	> 1 µM

Measured IC50 of COc1cc2c(c(OC)c1OC)-c1ccc(OC)c(=O)cc1[C@@H](NC(=O)CN(OC)[C@@H]1O[C@H](CO)[C@@H](O[C@H]3O[C@H](CO)[C@@H](O[C@H]4O[C@H](CO)[C@@H](O)[C@H](O)[C@H]4O)[C@H](O)[C@H]3O)[C@H](O)[C@H]1O)CC2 [Col13, maltotrioside] : > 10 µM
